B1: TMEM192 (parent)
chain: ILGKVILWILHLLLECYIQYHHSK

# Variants of: B1
# experiment description: protein stability index of a GFP-peptide fusion (GPS, HEK-293T) (PSI 1-6); higher = more stable;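 also: lentivirally expressed fusions sorted by FACS into six bins by GFP to DsRed ratio, PSI derived from sequencing read proportions per bin multiplied by bin number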
# protocol conditions: c terminus: a fixed tail appended
assay endpoint: protein stability index
Give bare numbers.

Worked cases, answers included:
| var | protein stability index |
| --- | --- |
| C16Q | 2.86 |
| H22M | 1.96 |
| S23K | 2.82 |

// for each variant in input: emit protein stability index
1. L13R
2. I6M
3. I18S
4. L10W
5. I1F
6. L14G

Found:
2.37
2.24
2.74
3.83
2.81
3.05
